- Test system: Pseudomonas aeruginosa
- protocol-description: Antimicrobial activity against Pseudomonas aeruginosa ATCC 27853 assessed as growth inhibition zone by agar diffusion method
- Type: functional
In this section, each of the compounds is paired with its reported inhibition zone (IZ).
experimental-readout: inhibition zone (IZ)

{"compound": "CC1CCN(c2ccc(/C=C(\\C#N)c3nc4ccccc4s3)cc2)CC1", "experimental-target": "Pseudomonas aeruginosa", "assay-value": "22 mm"}
{"compound": "Fc1ccc(-c2ccnc3c(-c4nc5ccccc5s4)cnn23)cc1", "experimental-target": "Pseudomonas aeruginosa", "assay-value": "25 mm"}
{"compound": "CN1CCN(c2ccc(/C=C(\\C#N)c3nc4ccccc4s3)cc2)CC1", "experimental-target": "Pseudomonas aeruginosa", "assay-value": "26 mm"}
{"compound": "Cc1cc(C)n2ncc(-c3nc4ccccc4s3)c2n1", "experimental-target": "Pseudomonas aeruginosa", "assay-value": "17 mm"}
{"compound": "Clc1ccc(-c2ccnc3c(-c4nc5ccccc5s4)cnn23)cc1", "experimental-target": "Pseudomonas aeruginosa", "assay-value": "23 mm"}
{"compound": "N#C/C(=C\\c1ccc(N2CCCCC2)cc1)c1nc2ccccc2s1", "experimental-target": "Pseudomonas aeruginosa", "assay-value": "23 mm"}
{"compound": "Brc1ccc(-c2ccnc3c(-c4nc5ccccc5s4)cnn23)cc1", "experimental-target": "Pseudomonas aeruginosa", "assay-value": "19 mm"}
{"compound": "Nc1[nH]ncc1-c1nc2ccccc2s1", "experimental-target": "Pseudomonas aeruginosa", "assay-value": "16 mm"}
{"compound": "N#C/C(=C\\c1ccc(N2CCOCC2)cc1)c1nc2ccccc2s1", "experimental-target": "Pseudomonas aeruginosa", "assay-value": "21 mm"}
{"compound": "C[C@@H](O)[C@H]1C(=O)N2C(C(=O)O)=C(SCCNC=N)C[C@H]12 [IMIPENEM ANHYDROUS]", "experimental-target": "Pseudomonas aeruginosa", "assay-value": "12 mm"}
{"compound": "COc1ccc(-c2ccnc3c(-c4nc5ccccc5s4)cnn23)cc1", "experimental-target": "Pseudomonas aeruginosa", "assay-value": "22 mm"}
{"compound": "Cc1ccc(-c2ccnc3c(-c4nc5ccccc5s4)cnn23)cc1", "experimental-target": "Pseudomonas aeruginosa", "assay-value": "24 mm"}
{"compound": "Cc1nc2c(-c3nc4ccccc4s3)cnn2c(C)c1Cl", "experimental-target": "Pseudomonas aeruginosa", "assay-value": "21 mm"}
{"compound": "c1ccc(-c2ccnc3c(-c4nc5ccccc5s4)cnn23)cc1", "experimental-target": "Pseudomonas aeruginosa", "assay-value": "20 mm"}
{"compound": "N#C/C(=C\\c1ccc(N2CCCC2)cc1)c1nc2ccccc2s1", "experimental-target": "Pseudomonas aeruginosa", "assay-value": "25 mm"}

---

- System: Staphylococcus aureus
- protocol-description: Antimicrobial activity against Staphylococcus aureus ATCC 43300 assessed as growth inhibition zone by agar diffusion method
- Assay type: functional
Below, each entry is listed with its recorded inhibition zone (IZ).
experimental-readout: inhibition zone (IZ) (mm)

{"compound": "C[C@@H](O)[C@H]1C(=O)N2C(C(=O)O)=C(SCCNC=N)C[C@H]12 [IMIPENEM ANHYDROUS]", "assay-value": 24}
{"compound": "Cc1nc2c(-c3nc4ccccc4s3)cnn2c(C)c1Cl", "assay-value": 19}
{"compound": "Cc1ccc(-c2ccnc3c(-c4nc5ccccc5s4)cnn23)cc1", "assay-value": 26}
{"compound": "Brc1ccc(-c2ccnc3c(-c4nc5ccccc5s4)cnn23)cc1", "assay-value": 19}
{"compound": "CC1CCN(c2ccc(/C=C(\\C#N)c3nc4ccccc4s3)cc2)CC1", "assay-value": 22}
{"compound": "N#C/C(=C\\c1ccc(N2CCCC2)cc1)c1nc2ccccc2s1", "assay-value": 27}
{"compound": "N#C/C(=C\\c1ccc(N2CCOCC2)cc1)c1nc2ccccc2s1", "assay-value": 23}
{"compound": "c1ccc(-c2ccnc3c(-c4nc5ccccc5s4)cnn23)cc1", "assay-value": 20}
{"compound": "COc1ccc(-c2ccnc3c(-c4nc5ccccc5s4)cnn23)cc1", "assay-value": 17}
{"compound": "N#C/C(=C\\c1ccc(N2CCCCC2)cc1)c1nc2ccccc2s1", "assay-value": 24}
{"compound": "CN1CCN(c2ccc(/C=C(\\C#N)c3nc4ccccc4s3)cc2)CC1", "assay-value": 28}

---

- Test system: Pseudomonas aeruginosa
- protocol-description: Antibacterial activity against Pseudomonas aeruginosa by CLSI protocol based broth microdilution method
- Assay type: functional
- applied-conditions: Pseudomonas aeruginosa

{"molecule": "c1ccc(-c2ccnc3c(-c4nc5ccccc5s4)cnn23)cc1", "MIC (µg/mL)": 37.5}
{"molecule": "Fc1ccc(-c2ccnc3c(-c4nc5ccccc5s4)cnn23)cc1", "MIC (µg/mL)": 18.8}
{"molecule": "N#C/C(=C\\c1ccc(N2CCOCC2)cc1)c1nc2ccccc2s1", "MIC (µg/mL)": 37.5}
{"molecule": "Cc1ccc(-c2ccnc3c(-c4nc5ccccc5s4)cnn23)cc1", "MIC (µg/mL)": 18.8}
{"molecule": "Cc1cc(C)n2ncc(-c3nc4ccccc4s3)c2n1", "MIC (µg/mL)": 75}
{"molecule": "Nc1[nH]ncc1-c1nc2ccccc2s1", "MIC (µg/mL)": 75}
{"molecule": "N#C/C(=C\\c1ccc(N2CCCC2)cc1)c1nc2ccccc2s1", "MIC (µg/mL)": 18.8}
{"molecule": "N#C/C(=C\\c1ccc(N2CCCCC2)cc1)c1nc2ccccc2s1", "MIC (µg/mL)": 18.8}
{"molecule": "Brc1ccc(-c2ccnc3c(-c4nc5ccccc5s4)cnn23)cc1", "MIC (µg/mL)": 37.5}

---

- System: Pseudomonas aeruginosa
- protocol-description: Antibacterial activity against Pseudomonas aeruginosa by CLSI protocol based broth microdilution method
- Format: functional
Recorded SubMIC for the following compounds

{"molecule": "N#C/C(=C\\c1ccc(N2CCOCC2)cc1)c1nc2ccccc2s1", "readout-unit": "µg/mL", "SubMIC": 18.75}
{"molecule": "Clc1ccc(-c2ccnc3c(-c4nc5ccccc5s4)cnn23)cc1", "readout-unit": "µg/mL", "SubMIC": 9.375}
{"molecule": "N#C/C(=C\\c1ccc(N2CCCCC2)cc1)c1nc2ccccc2s1", "readout-unit": "µg/mL", "SubMIC": 9.375}
